// values below are reported growth
# System: MCF7 breast
# EXPERIMENT_SUMMARY: NCI-60 one-dose screen, 48 h (100 = growth as untreated, 0 = no growth, -100 = all killed)
# CONDITION: 10 µM
# Procedure: Growth inhibition of the MCF7 human tumor cell line is measured as a screen for anti-cancer activity. Cells are grown in 96 well plates and exposed to the test compound for 48 hours. Compounds are tested at a single concentration, which is 10^-5 M for most compounds. The reported endpoint is percent growth (GI% or GIPRCNT), where numbers from 0 - 100% represent growth inhibition, and numbers from -100% - 0 represent cell death. For example, a value of 40 represents 60% growth inhibition. […]
This is part of a sample that, as a whole, favours compounds with a hit. Of some 83,000 tested, about 20% had one in any assay.
Number in %, nothing else.

COMPOUND	RESULT_VALUE
O=c1c(-c2nc3ccccc3[nH]2)cc2ccccc2n1Cc1cn(Cc2ccc(N3CCOCC3)cc2)nn1	56.8
CCN1C(=O)N(CC)C2C1NN=c1s/c(=C3\C(=O)N(C(C)C)c4ccccc43)c(=O)n12 (configuration not stated)	20.5
O=C(CCc1nnc2sc(Cc3ccccc3Cl)nn12)c1nc2ncccc2[nH]1	80

Ask: Enter recorded growth with MCF7 breast for "O=C(Nc1nc2c(s1)CCc1c-2c(Br)n(Cc2ccccc2)c1Br)c1ccccc1" here.
Result: 51.5

Ask: With MCF7 breast as the test system, provide measured growth for this compound: "COc1ccc(-c2nc(N3CCN(C(=O)C4CCCCC4)CC3)c3c4c(sc3n2)CCCC4)cc1"
Result: -10.8

Ask: Report value only: growth, MCF7 breast, "N[C@@H](CC/[N+]([O-])=N/O)C(=O)O"
Result: 93.7

Ask: // fetch growth; item: "CC1=C(C(=O)OCC2CCN(C(=O)OC(C)(C)C)CC2)[C@@H](c2cccc(C#N)c2)C2=C(CC(C)(C)CC2=O)N1" ; system: MCF7 breast
Result: 30.5

###

# key: entry, value: growth
# System: OVCAR-5 ovarian
# EXPERIMENT_SUMMARY: NCI-60 one-dose screen, 48 h (100 = growth as untreated, 0 = no growth, -100 = all killed)
# CONDITION: 10 µM unless noted
About 83,000 compounds went through this panel and 20% of them were active in at least one assay; those are over-represented in the sample as a whole.
Form entry: value (%) — number only.

Example compounds with recorded growth:
COMPOUND	ENDPOINT_LABEL	RESULT_VALUE
Clc1ccc(Nc2scc3[n+]2CCC3)cc1	growth	96.5
O=C(NC1CCN(Cc2ccccc2)CC1)c1cc2nc(-c3ccc(Cl)s3)cc(C(F)(F)F)n2n1	growth	93.2
CN1C(=O)N(C)C2C1NN=c1s/c(=C\c3ccc(Cl)cc3Cl)c(=O)n12 (centres undefined)	growth	32.5
COc1ccc(C2=C(c3cccc(OC)c3)C(=O)c3ccc(C)nc3C2=O)cc1	growth	104
COc1cc(OC)cc(N2C(=O)N(Cc3ccc(C(C)(C)C)cc3)c3ccccc3S2(=O)=O)c1	growth	86.2
O=C(Nc1ccc(N2CCNCC2)cn1)c1[nH]ncc1Nc1ncnc2sc3c(c12)CCC3	growth	20.7

Ask: Report growth from OVCAR-5 ovarian testing of "O=C(/C=C/c1cccc(Cl)c1)OCc1ccc2cc1OCC#C/C=C\C#CCO2"
Result: 108

Ask: Specify growth for "CC1=C(CC(=O)c2cccc([N+](=O)[O-])c2)C(=O)c2ccccc2C1=O" , system OVCAR-5 ovarian.
Result: 37.5

Ask: Quote OVCAR-5 ovarian growth for entry "O=C1/C(=C/c2cccc(O)c2)COc2ccc(O)cc21" .
Result: 105

Ask: Look up and report measured growth (OVCAR-5 ovarian) for the following compound: COc1ccc(CCN2C(=O)/C(=C/c3ccc(C4Oc5ccccc5C5CC(c6cccc(OC)c6)=NN54)cc3)SC2=S)cc1 (centres undefined)
Result: 99.9

Ask: Report growth under test system OVCAR-5 ovarian for "Cc1ccc2c(n1)C(=O)C(Oc1ccc(Br)cc1)=CC2=O" .
Result: 114

Ask: Tell me its growth on OVCAR-5 ovarian: "Nc1ccccc1-c1ccc(-c2ccc(Cl)cc2)c2c1[nH]c1ccccc12"
Result: 91.2

Ask: Look up and report measured growth (OVCAR-5 ovarian) for the following compound: "O=C1/C(=C/c2ccc(O)cc2)COc2ccc(O)c(O)c21"
Result: 43.7

Ask: Tell me growth of "CCCCN1CCN(c2ccc3nc(-c4ccc5nc(-c6ccc(C(F)(F)F)cc6)[nH]c5c4)[nH]c3c2)CC1" when tested on OVCAR-5 ovarian.
Result: -89.2
